Recorded values, source the supplement of paper PMC6757056.

B1: library; a variant is named by its letters at N, in order (parent)
chain: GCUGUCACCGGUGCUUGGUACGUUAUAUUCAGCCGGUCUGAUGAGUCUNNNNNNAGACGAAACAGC

Variants of: B1
Experiment: normalized RNA/DNA level with ligand (relative to sTRSVctl = 100) (log10 (% of sTRSVctl)); HEK293T overexpressing SLC46A1; ligand concentration (+) RNA-Seq: 6 mM; higher = less ribozyme self-cleavage, higher mRNA level
Conditions: with (6R,S)-folinic acid; ligand present: yes
property: normalized RNA/DNA level with ligand (log10)
Answer as a number with no unit attached.

Some solved entries appear below for comparison.
- residues: "GCUGUCACCGGUGCUUGGUACGUUAUAUUCAGCCGGUCUGAUGAGUCUCUGCCCAGACGAAACAGC [CUGCCC]"
  reportedMeasurement: 2.06
- residues: "GCUGUCACCGGUGCUUGGUACGUUAUAUUCAGCCGGUCUGAUGAGUCUGGUGGAAGACGAAACAGC [GGUGGA]"
  reportedMeasurement: 2.06
- residues: "GCUGUCACCGGUGCUUGGUACGUUAUAUUCAGCCGGUCUGAUGAGUCUACUUUCAGACGAAACAGC [ACUUUC]"
  reportedMeasurement: 2.05

Q: Requested field: normalized RNA/DNA level with ligand (log10). Item: GCUGUCACCGGUGCUUGGUACGUUAUAUUCAGCCGGUCUGAUGAGUCUCCUUCUAGACGAAACAGC [CCUUCU]
Result: 2.02

Q: Requested read-out: normalized RNA/DNA level with ligand (log10). Entry: GCUGUCACCGGUGCUUGGUACGUUAUAUUCAGCCGGUCUGAUGAGUCUAGUUUCAGACGAAACAGC [AGUUUC]
Result: 2

Q: // normalized RNA/DNA level with ligand (log10) lookup, key: GCUGUCACCGGUGCUUGGUACGUUAUAUUCAGCCGGUCUGAUGAGUCUGCCCUGAGACGAAACAGC [GCCCUG]
Result: 2.04

Q: Return reported normalized RNA/DNA level with ligand (log10); argument: GCUGUCACCGGUGCUUGGUACGUUAUAUUCAGCCGGUCUGAUGAGUCUGGAUAGAGACGAAACAGC [GGAUAG]
Result: 2.03

Q: Find the recorded normalized RNA/DNA level with ligand (log10) belonging to GCUGUCACCGGUGCUUGGUACGUUAUAUUCAGCCGGUCUGAUGAGUCUCUCUCCAGACGAAACAGC [CUCUCC] and report it.
Result: 2.07

Q: Using the record for GCUGUCACCGGUGCUUGGUACGUUAUAUUCAGCCGGUCUGAUGAGUCUGUCCUAAGACGAAACAGC [GUCCUA] , report its normalized RNA/DNA level with ligand (log10).
Result: 2.02

Q: I would be grateful if you could share the reported normalized RNA/DNA level with ligand (log10) for GCUGUCACCGGUGCUUGGUACGUUAUAUUCAGCCGGUCUGAUGAGUCUCAGAGUAGACGAAACAGC [CAGAGU] .
Result: 2.02

Q: Can you look up the measured normalized RNA/DNA level with ligand (log10) of GCUGUCACCGGUGCUUGGUACGUUAUAUUCAGCCGGUCUGAUGAGUCUUGACCUAGACGAAACAGC [UGACCU] for me?
Result: 2.06
